# test details: Hemolytic activity assay
# Format: cell-based, murine
# test context: mouse, murine red blood cells (mRBCs); 3.9 μg/mL, mRBCs, 37 °C 1 h, ± SDEV
Entries annotated with measured hemolysis at 1 h, 3.9 μg/mL
Value expressed in %; do not type the unit.

Req: Could you share which hemolysis at 1 h, 3.9 μg/mL value was measured for CCCCCCCCCCCCc1cn(C[C@H]2O[C@H](O[C@@H]3[C@@H](O)[C@H](O[C@H]4O[C@H](CN)[C@@H](O)C[C@H]4N)[C@@H](N)C[C@H]3N)[C@H](O)[C@@H](N)[C@@H]2O)nn1 [Compound 7b] ?
Resp: 13.4

Req: Recorded hemolysis at 1 h, 3.9 μg/mL of C[C@@H]1[C@H](O)[C@@H](C)/C=C/C=C/C=C/C=C/C=C/C=C/C=C/[C@H](O[C@@H]2O[C@H](C)[C@@H](O)[C@H](N)[C@@H]2O)C[C@@H]2O[C@](O)(C[C@@H](O)C[C@@H](O)[C@H](O)CC[C@@H](O)C[C@@H](O)CC(=O)O[C@H]1C)C[C@H](O)[C@H]2C(=O)O [AmB, amphotericin B, reference compound] , please.
Resp: 3.4

Req: Query (compound): CCCCCCCCCCc1cn(C[C@H]2O[C@H](O[C@@H]3[C@@H](O)[C@H](O[C@H]4O[C@H](CN)[C@@H](O)C[C@H]4N)[C@@H](N)C[C@H]3N)[C@H](O)[C@@H](N)[C@@H]2O)nn1 [Compound 7a] ; field requested: hemolysis at 1 h, 3.9 μg/mL
Resp: 0

Req: Looking for the measured hemolysis at 1 h, 3.9 μg/mL of CCCCCCCCCCCCS(=O)(=O)C[C@H]1O[C@H](O[C@@H]2[C@@H](O)[C@H](O[C@H]3O[C@H](CN)[C@@H](O)C[C@H]3N)[C@@H](N)C[C@H]2N)[C@H](O)[C@@H](N)[C@@H]1O [Compound 4] , can you help?
Resp: 6

* * *

# Tested on: Aspergillus terreus ATCC MYA-3633 (strain M)
# test details: MIC, filamentous fungi (CLSI M38-A2), strain M
# Type: cell-based
# test context: MIC-0, strain M, 35 °C 72 h
Quick reference: MIC of the listed items.

Reference set (6 entries):
[
  {
    "compound": "NC[C@H]1O[C@H](O[C@H]2[C@H](O)[C@@H](O[C@H]3O[C@H](CO)[C@@H](O)[C@H](N)[C@H]3O)[C@H](N)C[C@@H]2N)[C@H](N)C[C@@H]1O",
    "MIC": "> 62.5 µg/mL"
  },
  {
    "compound": "CCCCCCCCCCCCc1cn(C[C@H]2O[C@H](O[C@@H]3[C@@H](O)[C@H](O[C@H]4O[C@H](CN)[C@@H](O)C[C@H]4N)[C@@H](N)C[C@H]3N)[C@H](O)[C@@H](N)[C@@H]2O)nn1",
    "MIC": "62.5 µg/mL"
  },
  {
    "compound": "CCCCCCCCCCCC(=O)NC[C@H]1O[C@H](O[C@@H]2[C@@H](O)[C@H](O[C@H]3O[C@H](CN)[C@@H](O)C[C@H]3N)[C@@H](N)C[C@H]2N)[C@H](O)[C@@H](N)[C@@H]1O",
    "MIC": "> 62.5 µg/mL"
  },
  {
    "compound": "CCCCCCCCCCCCSC[C@H]1O[C@H](O[C@@H]2[C@@H](O)[C@H](O[C@H]3O[C@H](CN)[C@@H](O)C[C@H]3N)[C@@H](N)C[C@H]2N)[C@H](O)[C@@H](N)[C@@H]1O",
    "MIC": "> 62.5 µg/mL"
  },
  {
    "compound": "CCCCCCCCCCc1cn(C[C@H]2O[C@H](O[C@@H]3[C@@H](O)[C@H](O[C@H]4O[C@H](CN)[C@@H](O)C[C@H]4N)[C@@H](N)C[C@H]3N)[C@H](O)[C@@H](N)[C@@H]2O)nn1",
    "MIC": "> 62.5 µg/mL"
  },
  {
    "compound": "CC[C@H](C)C[C@H](C)CCCCCCCCC(=O)N[C@H]1C[C@@H](O)[C@@H](NCCN)NC(=O)[C@@H]2[C@@H](O)CCN2C(=O)[C@H]([C@H](O)CCN)NC(=O)[C@H]([C@H](O)[C@@H](O)c2ccc(O)cc2)NC(=O)[C@@H]2C[C@@H](O)CN2C(=O)[C@H]([C@@H](C)O)NC1=O [CAS, caspofungin, reference compound]",
    "MIC": "> 31.3 µg/mL"
  }
]

Req: I'd like to know its MIC. The compound in question is CCCCCCCCCCCCS(=O)(=O)C[C@H]1O[C@H](O[C@@H]2[C@@H](O)[C@H](O[C@H]3O[C@H](CN)[C@@H](O)C[C@H]3N)[C@@H](N)C[C@H]2N)[C@H](O)[C@@H](N)[C@@H]1O
Resp: 62.5 µg/mL

Req: Can you share its MIC? I mean this compound: CCCCCCCCCCCCOCC1OC(OC2C(N)CC(N)C(OC3OC(CN)C(O)CC3N)C2O)C(O)C(N)C1O (centres unmarked)
Resp: > 62.5 µg/mL

* * *

Consider the following compounds and their measured MIC readings.
# Test system: C. albicans ATCC MYA-2310(S) (strain E)
# test details: MIC, broth microdilution (CLSI M27-A3), yeast strain E
# Type: cell-based
# test context: Candida albicans; MIC-0, strain E, 35 °C 48 h
Quick reminder: number only, in µg/mL, skip the unit.

[
  {
    "compound": "CCCCCCCCCCCCS(=O)(=O)C[C@H]1O[C@H](O[C@@H]2[C@@H](O)[C@H](O[C@H]3O[C@H](CN)[C@@H](O)C[C@H]3N)[C@@H](N)C[C@H]2N)[C@H](O)[C@@H](N)[C@@H]1O",
    "readout units": "µg/mL",
    "numeric value": 15.6
  }
]

Req: For CCCCCCCCCCCCSC[C@H]1O[C@H](O[C@@H]2[C@@H](O)[C@H](O[C@H]3O[C@H](CN)[C@@H](O)C[C@H]3N)[C@@H](N)C[C@H]2N)[C@H](O)[C@@H](N)[C@@H]1O , what is its reported MIC?
Resp: 15.6

Req: // lookup MIC for CC[C@H](C)C[C@H](C)CCCCCCCCC(=O)N[C@H]1C[C@@H](O)[C@@H](NCCN)NC(=O)[C@@H]2[C@@H](O)CCN2C(=O)[C@H]([C@H](O)CCN)NC(=O)[C@H]([C@H](O)[C@@H](O)c2ccc(O)cc2)NC(=O)[C@@H]2C[C@@H](O)CN2C(=O)[C@H]([C@@H](C)O)NC1=O [CAS, caspofungin, reference compound]
Resp: 0.12

Req: What measured MIC goes with CCCCCCCCCCCCc1cn(C[C@H]2O[C@H](O[C@@H]3[C@@H](O)[C@H](O[C@H]4O[C@H](CN)[C@@H](O)C[C@H]4N)[C@@H](N)C[C@H]3N)[C@H](O)[C@@H](N)[C@@H]2O)nn1 ?
Resp: 7.8

Req: Fill in the blank: the reported MIC of CCCCCCCCCCCC(=O)NC[C@H]1O[C@H](O[C@@H]2[C@@H](O)[C@H](O[C@H]3O[C@H](CN)[C@@H](O)C[C@H]3N)[C@@H](N)C[C@H]2N)[C@H](O)[C@@H](N)[C@@H]1O is ____.
Resp: 31.3

Req: Need MIC of CCCCCCCCCCc1cn(C[C@H]2O[C@H](O[C@@H]3[C@@H](O)[C@H](O[C@H]4O[C@H](CN)[C@@H](O)C[C@H]4N)[C@@H](N)C[C@H]3N)[C@H](O)[C@@H](N)[C@@H]2O)nn1 , thanks.
Resp: 31.3

Req: So what's the measured MIC for this one? CCCCCCCCCCCCOCC1OC(OC2C(N)CC(N)C(OC3OC(CN)C(O)CC3N)C2O)C(O)C(N)C1O (centres unmarked)
Resp: 62.5

* * *

hemolysis at 1 h, 31.3 μg/mL values by entry
# test details: Hemolytic activity assay
# Type: cell-based, murine
# test context: mouse, murine red blood cells (mRBCs); 31.3 μg/mL, mRBCs, 37 °C 1 h, ± SDEV

Look over these answered cases.
[
  {
    "molecule": "C[C@@H]1[C@H](O)[C@@H](C)/C=C/C=C/C=C/C=C/C=C/C=C/C=C/[C@H](O[C@@H]2O[C@H](C)[C@@H](O)[C@H](N)[C@@H]2O)C[C@@H]2O[C@](O)(C[C@@H](O)C[C@@H](O)[C@H](O)CC[C@@H](O)C[C@@H](O)CC(=O)O[C@H]1C)C[C@H](O)[C@H]2C(=O)O [AmB, amphotericin B, reference compound]",
    "hemolysis at 1 h, 31.3 μg/mL": "80.2%"
  },
  {
    "molecule": "CCCCCCCCCCCC(=O)NC[C@H]1O[C@H](O[C@@H]2[C@@H](O)[C@H](O[C@H]3O[C@H](CN)[C@@H](O)C[C@H]3N)[C@@H](N)C[C@H]2N)[C@H](O)[C@@H](N)[C@@H]1O [Compound 9]",
    "hemolysis at 1 h, 31.3 μg/mL": "26%"
  },
  {
    "molecule": "CCCCCCCCCCCCc1cn(C[C@H]2O[C@H](O[C@@H]3[C@@H](O)[C@H](O[C@H]4O[C@H](CN)[C@@H](O)C[C@H]4N)[C@@H](N)C[C@H]3N)[C@H](O)[C@@H](N)[C@@H]2O)nn1 [Compound 7b]",
    "hemolysis at 1 h, 31.3 μg/mL": "55.5%"
  }
]

Switching to the query record.
Req: So what does the record say about hemolysis at 1 h, 31.3 μg/mL for CCCCCCCCCCc1cn(C[C@H]2O[C@H](O[C@@H]3[C@@H](O)[C@H](O[C@H]4O[C@H](CN)[C@@H](O)C[C@H]4N)[C@@H](N)C[C@H]3N)[C@H](O)[C@@H](N)[C@@H]2O)nn1 [Compound 7a] ?
Resp: 14.8%
